FYI, the data here is from ChEMBL document CHEMBL1208724.

biological target: Adenosine receptor A3 (Homo sapiens, UniProt P0DMS8); assay: Displacement of [3H]AB-MECA from human recombinant A3 receptor expressed in HEK293 cells
Sequence (P0DMS8 whole entry): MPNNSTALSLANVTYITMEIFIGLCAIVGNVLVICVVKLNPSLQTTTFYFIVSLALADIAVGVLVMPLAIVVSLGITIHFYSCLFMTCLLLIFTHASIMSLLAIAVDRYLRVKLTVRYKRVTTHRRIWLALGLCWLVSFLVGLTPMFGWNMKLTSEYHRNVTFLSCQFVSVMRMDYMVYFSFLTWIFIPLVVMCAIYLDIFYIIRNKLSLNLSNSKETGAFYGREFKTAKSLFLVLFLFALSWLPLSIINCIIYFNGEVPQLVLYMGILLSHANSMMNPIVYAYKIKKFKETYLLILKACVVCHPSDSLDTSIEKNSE
measure: IC50 (nM)

> print(dat)
                                   compound  endpoint.value
1  C/C(=N\OC(=O)Nc1ccccc1)c1cccc(-c2cccs2)c1            1000

----------
target: Cannabinoid receptor 1 (Mus musculus)
Sequence (P47746 whole entry): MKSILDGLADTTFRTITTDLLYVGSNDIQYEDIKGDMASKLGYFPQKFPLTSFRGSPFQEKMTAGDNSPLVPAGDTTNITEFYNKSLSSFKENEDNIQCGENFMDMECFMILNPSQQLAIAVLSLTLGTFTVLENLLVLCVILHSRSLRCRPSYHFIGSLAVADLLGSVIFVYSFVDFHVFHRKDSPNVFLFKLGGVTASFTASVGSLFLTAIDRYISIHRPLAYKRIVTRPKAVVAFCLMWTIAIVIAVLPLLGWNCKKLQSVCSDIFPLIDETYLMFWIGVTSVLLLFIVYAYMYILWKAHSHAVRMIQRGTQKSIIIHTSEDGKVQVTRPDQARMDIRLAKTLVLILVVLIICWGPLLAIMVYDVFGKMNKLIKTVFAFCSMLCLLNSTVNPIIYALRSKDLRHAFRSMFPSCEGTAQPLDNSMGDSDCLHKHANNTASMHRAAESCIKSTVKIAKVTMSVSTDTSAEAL
pIC50: −log10 of the molar value.
measure: pIC50

> print(dat)
                                   compound  endpoint.value
1  C/C(=N\OC(=O)Nc1ccccc1)c1cccc(-c2cccs2)c1          < 5.00
